studyTarget: human PAI-1 (Homo sapiens, UniProt P05121)
Sequence (P05121 24-402): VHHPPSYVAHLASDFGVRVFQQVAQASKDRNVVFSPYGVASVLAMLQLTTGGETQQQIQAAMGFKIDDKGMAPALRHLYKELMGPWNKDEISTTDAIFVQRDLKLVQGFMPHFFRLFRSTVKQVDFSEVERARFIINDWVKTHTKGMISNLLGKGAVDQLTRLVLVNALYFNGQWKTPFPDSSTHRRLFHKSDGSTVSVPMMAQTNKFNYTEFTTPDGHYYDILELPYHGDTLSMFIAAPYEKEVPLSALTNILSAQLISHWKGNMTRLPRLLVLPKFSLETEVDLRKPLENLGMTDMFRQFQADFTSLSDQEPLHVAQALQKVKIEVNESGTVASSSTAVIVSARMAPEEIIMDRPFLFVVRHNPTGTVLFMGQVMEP
protocolDescription: Measurement of PAI-1 inhibitory activity of compound group 1 (t-PA, Spectrozyme t-PA chromogenic substrate)
details: read-out: PAI-1 activity %
Counter-ions that a name gives are not always drawn.

{"compound": "CC1(c2ccc(C(=O)Nc3ccc(Cl)cc3C(=O)O)cc2)CCCCC1", "activity at 10 µM, %": 0.1}
{"compound": "O=C(CCOc1ccc(C23CC4CC(CC(C4)C2)C3)cc1)Nc1ccc(Cl)cc1C(=O)O", "activity at 10 µM, %": 1.4}
{"compound": "O=C(Nc1ccc(Cl)cc1C(=O)O)c1ccc(C(=O)C23CC4CC(CC(C4)C2)C3)cc1", "activity at 10 µM, %": 0.7}
{"compound": "CC(C)(C)c1cccc(OCC(=O)Nc2ccc(Cl)cc2C(=O)O)c1", "activity at 10 µM, %": 21.9}
{"compound": "O=C(COc1ccc(-c2ccccc2)cc1)Nc1ccc(Cl)cc1C(=O)O", "activity at 10 µM, %": 2.5}
{"compound": "Cc1ccc(C23CC4CC(CC(C(=O)Nc5ccc(Cl)cc5C(=O)O)(C4)C2)C3)cc1", "activity at 10 µM, %": 1.4}
{"compound": "O=C(Nc1ccc(Cl)cc1C(=O)O)c1ccc(C23CC4CC(CC(C4)C2)C3)cc1", "activity at 10 µM, %": 1.7}
{"compound": "O=C(O)c1cc(Cl)ccc1NC(=O)c1cc(-c2ccccc2)nc2ccccc12", "activity at 10 µM, %": 6.7}
{"compound": "O=C(COc1cccc(-c2ccco2)c1)Nc1ccc(Cl)cc1C(=O)O", "activity at 10 µM, %": 21.6}
{"compound": "O=C(Nc1ccc(Cl)cc1C(=O)O)C(=O)c1c[nH]c2ccc(OCc3ccccc3)cc12", "activity at 10 µM, %": 0.2}
{"compound": "O=C(Nc1ccc(Cl)cc1C(=O)O)C1=CC2(CCCCC2)CCC1", "activity at 10 µM, %": 5.5}
{"compound": "Cc1sc(NC(=O)c2ccc(C3CCCCC3)cc2)c(C(=O)O)c1-c1ccccc1", "activity at 10 µM, %": 0.2}
{"compound": "O=C(Nc1ccc(Cl)cc1C(=O)[O-])c1cccc(-c2cnc3ccccc3c2)c1.[Na+]", "activity at 10 µM, %": 0.3}
{"compound": "O=C(Nc1ccc(C#CC2CCCCC2)cc1C(=O)O)c1ccc(C2CCCCC2)cc1", "activity at 10 µM, %": 0.4}
{"compound": "O=C(Nc1ccc(Cl)cc1-c1nnn[nH]1)c1cccc(-c2cccc3cccnc23)c1", "activity at 10 µM, %": 1.5}
{"compound": "O=C(Nc1ccc(Cl)cc1C(=O)O)c1cccc(-c2cccc3ccccc23)c1", "activity at 10 µM, %": 0}
{"compound": "O=C(Nc1ccc(Cl)cc1C(=O)O)c1ccc(N2CCCC2)cc1 [Example 83, hydrochloride]", "activity at 10 µM, %": 26.6}
{"compound": "O=C(C#Cc1ccc(C23CC4CC(CC(C4)C2)C3)cc1)Nc1ccc(Cl)cc1C(=O)O", "activity at 10 µM, %": 7.4}
{"compound": "O=C(COc1cccc(C2=CCCCC2)c1)Nc1ccc(Cl)cc1C(=O)O", "activity at 10 µM, %": 0}
{"compound": "O=C(Nc1ccc(Cl)cc1C(=O)O)c1ccc(-c2ccccc2)cc1 [Known compound (2), reference compound]", "activity at 10 µM, %": 0.2}
{"compound": "O=C(Cn1ccc2cc(Br)ccc21)Nc1ccc(Cl)cc1C(=O)O", "activity at 10 µM, %": 19.1}
{"compound": "O=C(Nc1ccc(Cl)cc1C(=O)O)c1ccc(Oc2ccccc2)cc1", "activity at 10 µM, %": 3.8}
{"compound": "O=C(Nc1ccc(C2=CCCCC2)cc1C(=O)O)c1ccc(C2CCCCC2)cc1", "activity at 10 µM, %": 0}

All values here come from patent US10092537B2.
